Tested on: 299254-011-R-J1-PDC complex spheroids viability
Measurement description: Anticancer human tumor 299254-011-R-J1-PDC patient-derived melanoma cell line growth inhibition [GQUAD]
Conditions used: second compound 3.16 µM; first compound 0.1 µM; stronger effect = lower value
Metric: viability, T/C

In plain terms, CC(C)n1c(=O)n(C)c2cnc3cc(F)c(-c4ccc(OCCCN5CCCCC5)nc4)cc3c21 + Cc1cnc(CNC(=O)c2c(=O)c3ccc(N4CCCN(C)CC4)nc3n3c2sc2ccccc23)cn1 has a documented viability, T/C of 78.3%

Lookup result for C#Cc1c(F)ccc2cc(O)cc(-c3ncc4c(N5CC6CCC(C5)N6)nc(OCC56CCCN5CC(F)C6)nc4c3F)c12 (stereo not given) + Cc1[nH]c2ccc(F)cc2c1-c1nc2c3cccnc3c3ncccc3c2[nH]1 ; measured viability, T/C: 112%

Entry COc1cc(C2c3cc4c(cc3C(OC3OC5COC(C)OC5C(O)C3O)C3COC(=O)C23)OCO4)cc(OC)c1O (stereo not given) + CN(C)c1ccc(Nc2c3ccc(NC(=O)CCN4CCCC4)cc3nc3cc(NC(=O)CCN4CCCC4)ccc23)cc1 ; viability, T/C = 108%

***
Given item COc1cccc2c1C(=O)c1c(O)c3c(c(O)c1C2=O)CC(O)(C(=O)CO)CC3OC1CC(N)C(O)C(C)O1 (stereo not given) + CN(C)c1ccc(Nc2c3ccc(NC(=O)CCN4CCCC4)cc3nc3cc(NC(=O)CCN4CCCC4)ccc23)cc1 , the value recorded as its viability, T/C is 107%

viability, T/C reported for this compound CC1COCCN1c1cc(C2(S(C)(=N)=O)CC2)nc(-c2ccnc3[nH]ccc23)n1 (stereo not given) + Cc1[nH]c2ccc(F)cc2c1-c1nc2c3cccnc3c3ncccc3c2[nH]1 : 99.2%

====

Test system: 299254-011-R-J1-PDC complex spheroids viability
Measurement description: Anticancer human tumor 299254-011-R-J1-PDC cell line growth inhibition [GQUAD];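 note: spheroids exposed to the agents for seven days before readout; percent viability relative to DMSO vehicle control wells = 100%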
Conditions used: second compound 0.316 µM; first compound 3.16 µM; stronger effect = lower value
Please assign label 0 whenever viability, T/C is at or above 90%, and label 1 whenever it is below.

*Q* Consider CC(=O)O[C@H]1C(=O)[C@@]2(C)[C@H]([C@H](OC(=O)c3ccccc3)[C@]3(O)C[C@H](OC(=O)[C@H](O)[C@@H](NC(=O)c4ccccc4)c4ccccc4)C(C)=C1C3(C)C)[C@]1(OC(C)=O)CO[C@@H]1C[C@@H]2O + CN(C)c1ccc(Nc2c3ccc(NC(=O)CCN4CCCC4)cc3nc3cc(NC(=O)CCN4CCCC4)ccc23)cc1 . Does its viability, T/C lie strictly below 90%?
*A* label 1

New cases:
*Q* Does this compound meet the criterion viability, T/C < 90%? O=c1[nH]cc(F)c(=O)[nH]1 + CN(C)c1ccc(Nc2c3ccc(NC(=O)CCN4CCCC4)cc3nc3cc(NC(=O)CCN4CCCC4)ccc23)cc1
*A* label 0

*Q* Does COc1ncnc(C2CC2)c1-c1ncc2cnn(Cc3ccc(-c4nc(C(F)(F)F)cn4C(C)C)cc3)c2n1 + CN(C)c1ccc(Nc2c3ccc(NC(=O)CCN4CCCC4)cc3nc3cc(NC(=O)CCN4CCCC4)ccc23)cc1 have viability, T/C strictly under 90%?
*A* label 0

*Q* Is viability, T/C strictly under 90% for the entry CC1COCCN1c1cc(C2(S(C)(=N)=O)CC2)nc(-c2ccnc3[nH]ccc23)n1 (stereo not given) + CN(C)c1ccc(Nc2c3ccc(NC(=O)CCN4CCCC4)cc3nc3cc(NC(=O)CCN4CCCC4)ccc23)cc1 ?
*A* label 1

Where these numbers come from: PubChem BioAssay AID2060513
